# systemUnderTest: MshC (Mycobacterium tuberculosis, UniProt P9WJM9)
# Sequence (P9WJM9 1-414): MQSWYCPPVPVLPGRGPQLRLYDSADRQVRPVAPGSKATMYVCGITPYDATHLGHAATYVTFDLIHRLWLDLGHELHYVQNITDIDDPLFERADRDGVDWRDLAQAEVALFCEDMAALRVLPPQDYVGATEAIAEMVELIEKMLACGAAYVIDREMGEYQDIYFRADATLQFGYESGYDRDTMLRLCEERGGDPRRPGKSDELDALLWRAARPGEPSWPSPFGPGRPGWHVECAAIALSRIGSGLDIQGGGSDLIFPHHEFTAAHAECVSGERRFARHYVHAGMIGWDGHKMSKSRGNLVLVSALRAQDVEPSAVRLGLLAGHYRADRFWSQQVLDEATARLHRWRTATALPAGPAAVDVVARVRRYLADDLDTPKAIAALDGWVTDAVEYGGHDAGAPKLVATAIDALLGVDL
# assayProtocol: biochemical
# Assay type: biochemical, M. tuberculosis
# conditionContext: IC50, μM
Catalogue of IC50 values

Some solved cases for reference:
>>> readoutvalue("O=C(NCCCSC1CCCCC1)c1ccc2c(c1)N(Cc1cccc(Cl)c1)C(=O)c1ccccc1S2(=O)=O")
"> 3000 µM"
>>> readoutvalue("CCOCCCNC(=O)c1ccc2c(c1)N(Cc1cccc(Cl)c1)C(=O)c1ccccc1[S+]2[O-] (stereo not shown)")
"3200 µM"
>>> readoutvalue("CCN1C(=O)c2ccccc2Sc2ccc(C(=O)NCCCN3CCCCC3)cc21")
"~2000 µM"
>>> readoutvalue("Cc1ccc(CN2C(=O)c3ccccc3Sc3ccc(C(=O)NCCCN4CC(C)CC(C)C4)cc32)cc1 (stereo not shown)")
"> 3000 µM"
>>> readoutvalue("Cc1ccc(C)c(CN2C(=O)c3ccccc3[S+]([O-])c3ccc(C(=O)NCCCN4CCCC4)cc32)c1 (stereo not shown)")
"1600 µM"
>>> readoutvalue("O=C(NCCCN1CCOCC1)c1ccc2c(c1)N(Cc1cccc(Cl)c1)C(=O)c1ccccc1S2")
"780 µM"
>>> readoutvalue("CCC1CCCCN1CCCNC(=O)c1ccc2c(c1)N(Cc1ccccc1F)C(=O)c1ccccc1[S+]2[O-] (stereo not shown)")
"1400 µM"
>>> readoutvalue("CCC1CCCCN1CCNC(=O)c1ccc2c(c1)N(Cc1ccc(F)cc1Cl)C(=O)c1ccccc1S2 (stereo not shown)")
"~750 µM"

Problem: Fill in reported IC50 for this entry: CC1CC(C)CN(CCCNC(=O)c2ccc3c(c2)N(Cc2ccccc2F)C(=O)c2ccccc2S3(=O)=O)C1 (stereo not shown)
Solution: > 3000 µM

Problem: Fill in reported IC50 for this entry: CCCCN(C)CCCNC(=O)c1ccc2c(c1)N(Cc1cc(C)ccc1C)C(=O)c1ccccc1[S+]2[O-] (stereo not shown)
Solution: ~2500 µM

Problem: Fill in reported IC50 for this entry: `CCN(C(=O)c1ccc2c(c1)N(Cc1cccc(Cl)c1)C(=O)c1ccccc1S2(=O)=O)c1ccccc1`
Solution: > 3000 µM

====

Catalogue of IC50 values
# systemUnderTest: MshC (Mycobacterium tuberculosis)
# assayProtocol: biochemical
# Type: biochemical, M. tuberculosis
# conditionContext: IC50, μM

Some solved cases for reference:
>>> readoutvalue("COC(=O)c1cc2c(cc1NC(=O)c1ccc3c(c1)N(Cc1cccc(Cl)c1)C(=O)c1ccccc1[S+]3[O-])OCCO2 (centres unmarked)")
"> 3000 µM"
>>> readoutvalue("CCCCN(CCCNC(=O)c1ccc2c(c1)N(Cc1cccc(Cl)c1)C(=O)c1ccccc1[S+]2[O-])Cc1ccccc1 (centres unmarked)")
"> 3000 µM"
>>> readoutvalue("CN(CCCNC(=O)c1ccc2c(c1)N(Cc1ccccc1Cl)C(=O)c1ccccc1S2)c1ccccc1")
"> 3000 µM"
>>> readoutvalue("O=C(NCCCN1CCCCC1)c1ccc2c(c1)N(Cc1cccc(Cl)c1)C(=O)c1ccccc1S2")
"320 µM"
>>> readoutvalue("COC(=O)c1cc(NC(=O)c2ccc3c(c2)N(Cc2cccc(Cl)c2)C(=O)c2ccccc2[S+]3[O-])cc(C(=O)OC)c1 (centres unmarked)")
"> 3000 µM"
>>> readoutvalue("CCN1C(=O)c2ccccc2[S+]([O-])c2ccc(C(=O)NCCN3CCCCCC3)cc21 (centres unmarked)")
"> 3000 µM"
>>> readoutvalue("CN(C)CCCNC(=O)c1ccc2c(c1)N(Cc1ccc(Cl)cc1)C(=O)c1ccccc1[S+]2[O-] (centres unmarked)")
"335 µM"
>>> readoutvalue("Cc1ccc(CN2C(=O)c3ccccc3Sc3ccc(C(=O)NCC(C)CN4CCC(C)CC4)cc32)cc1 (centres unmarked)")
"> 3000 µM"

Problem: Fill in reported IC50 for this entry: CC1CCCN(CCCNC(=O)c2ccc3c(c2)N(Cc2ccc(F)cc2)C(=O)c2ccccc2[S+]3[O-])C1 (centres unmarked)
Solution: 710 µM

Problem: Fill in reported IC50 for this entry: `CCN1C(=O)c2ccccc2Sc2ccc(C(=O)NCCCN(CC(C)C)CC(C)C)cc21`
Solution: > 3000 µM

Problem: Fill in reported IC50 for this entry: `O=C(NCc1cccs1)c1ccc2c(c1)N(Cc1cccc(Cl)c1)C(=O)c1ccccc1S2`
Solution: > 3000 µM

Cited source for all entries: patent US20100022509A1
